Test system: NCI-H460
Assay: NCI tumour cell line growth inhibition, 48 h
Active and inactive are the calls of the source. Rule as the data show it: active = GI50 up to about 1.1 µM and inactive = higher.
Pick one and only one: 1 = active, 0 = inactive

QUERY: Outcome? C=C1C(=O)O[C@H]2C/C(C=O)=C\[C@H]3O[C@H]3/C(COC(=O)C(C)C)=C/CC12 (some centres undefined)
RESULT: 0

QUERY: Also check COc1ccc2c(c1)CCCN1CCc3ccccc3C21 (centres undefined)
RESULT: 0

QUERY: Also check CC(=O)OC12CC[N+]3(C)CCCCC3C1=Nc1ccccc12 (centres undefined)
RESULT: 0

QUERY: Also check "O=c1c2ccccc2nc(-c2cc3c(cc2Cl)Sc2nccn2S3(=O)=O)n1-c1ccccc1"
RESULT: 0

QUERY: Also check "CN(/N=C/c1ccccc1C(=O)O)C1=NCCCCN1"
RESULT: 0

QUERY: Also check O=C1CCC(NC(=O)c2ccccc2)C(=O)N1 (centres undefined)
RESULT: 0

QUERY: Also check "Cn1c(=O)c2c(nc(C[N+]3([O-])CCOCC3)n2C)n(C)c1=O"
RESULT: 0

QUERY: Also check "COc1cccc2c1-c1c(OC)cccc1SS2"
RESULT: 0

QUERY: Also check "COc1cc(/C=C2/C(=O)N(C(=O)c3ccc(Cl)cc3)N=C2C)cc(OC)c1OC"
RESULT: 0

QUERY: Also check "C/C(=N/NC(=S)N1CCCC1)c1cccc(/C(C)=N\NC(=S)N2CCCC2)n1"
RESULT: 1

QUERY: Also check CC[C@@H]1OC2(C)CC(S(=O)(=O)c3ccccc3)CC1O2 (some centres undefined)
RESULT: 0

QUERY: Also check "CC(C)(C)N/N=C(/Cc1nc2c3c(ccc2nc1O)C(=O)c1ccccc1C3=O)C(=O)NC1=C(Cl)C(=O)c2ccccc2C1=O"
RESULT: 0

QUERY: Also check O=C1OC2C(O)COC2(O)C1(O)Cc1c[nH]c2ccccc12.O=C1OC2C(O)COC2(OCc2c[nH]c3ccccc23)C1O (centres undefined)
RESULT: 0

QUERY: Also check "O=C(NO)C(=O)Nc1ccc(Cl)cc1[N+](=O)[O-]"
RESULT: 0

QUERY: Also check Nc1nc(N)c2ncn(CC(CO)CC(c3ccccc3)P(=O)(O)O)c2n1 (centres undefined)
RESULT: 0

QUERY: Also check CC(=O)OCC1OC(n2cc(F)c(=O)[nH]c2=O)C(OC(C)=O)C1OC(C)=O (centres undefined)
RESULT: 0

QUERY: Also check "CCOC(=O)Cn1c(=O)c2nc(SC)sc2n(-c2ccccc2)c1=S"
RESULT: 0

QUERY: Also check Cc1cc(C)n(C(=O)C(C)Sc2nnc(SC(C)C(=O)n3nc(C)cc3C)s2)n1 (centres undefined)
RESULT: 0

QUERY: Also check CCC(C(=O)c1ccc(OC)c(OC)c1)N(C(=O)C(F)(F)F)C(C)c1ccccc1 (centres undefined)
RESULT: 0
